Attribute: inhibition
Assay: Inhibition of PKA at 30 uM by microfluidic mobility shift assay
Quick note: give the figure in %, leave out the unit.

[[record]]
smiles_notation = "Cc1cc2c(c(N)nn2C)c(N2CC[C@H](O)C2)n1"
observed_property = "inhibition"
unit_symbol = "%"
data_value = 4

[[record]]
smiles_notation = "Nc1c2c(=O)[nH]c(-c3ccccn3)cc2nn1-c1ccccc1"
observed_property = "inhibition"
unit_symbol = "%"
data_value = 0

[[record]]
smiles_notation = "COc1ccc(S(=O)(=O)Nc2nn(C)c3cc(C)[nH]c(=O)c23)c(OC)c1"
observed_property = "inhibition"
unit_symbol = "%"
data_value = 3


Lab note: next compound to report on.
**Q:** // returns reported inhibition for input `Nc1n[nH]c2cc(-c3ccc(N4CCOCC4)cc3)[nH]c(=O)c12`
**A:** 88
